# SYSTEM_NAME: MgrA (Staphylococcus aureus, UniProt P0C1S0)
# Construct: homodimer in nature
# Sequence (P0C1S0 2-147): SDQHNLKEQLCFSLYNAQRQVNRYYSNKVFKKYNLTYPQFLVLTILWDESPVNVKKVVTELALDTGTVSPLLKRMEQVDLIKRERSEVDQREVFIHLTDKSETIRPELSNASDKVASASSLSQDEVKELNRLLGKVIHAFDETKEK
# ASSAY_PROCEDURE: fluorescence anisotropy, inhibition of MgrA binding to DNA probe
ASSAY_READOUT: pIC50
Give bare numbers, as −log10 of the molar value.

So, Cc1c(O)c(C)c2c(c1O)C(=O)[C@H](Cc1ccc3c(c1)OCO3)CO2 ? Its pIC50 was 4.02
